test: Dynamic Vapour Sorption (DVS) profiles; type: physicochemical; conditions: 25° C., sorption/desorption isotherms

compound: CCOc1cccc(-c2ccc(Nc3ncccc3C(=O)O)c(OC(F)(F)F)c2)c1
Hysteresis in the DVS pattern: no hysteresis
//
compound: COc1cccc(-c2cc(F)c(Nc3ncccc3C(=O)O)c(F)c2)c1 [Ex. 2]
Hysteresis in the DVS pattern: no hysteresis
//
compound: COc1cccc(-c2cc(F)c(Nc3ncccc3C(=O)O)c(F)c2)c1 [Ex. 1]
Hysteresis in the DVS pattern: no hysteresis

###

Reported Water Solubility @ 25° C. (mg/mL as acid) values follow for various compounds
test: Water-solubility test; format: physicochemical; conditions: 25° C. (room temperature), expressed as acid
Express your answer in mg/mL, writing the number without its unit.

For orientation, consider the following solved cases.
compound: CCOc1cccc(-c2ccc(Nc3ncccc3C(=O)O)c(OC(F)(F)F)c2)c1 [Ex. 3]
reported: 0.478

compound: CCOc1cccc(-c2ccc(Nc3ncccc3C(=O)O)c(OC(F)(F)F)c2)c1 [C2, reference compound]
reported: 0.008

compound: COc1cccc(-c2cc(F)c(Nc3ncccc3C(=O)O)c(F)c2)c1 [Ex. 2]
reported: 0.870

Return reported Water Solubility @ 25° C. (mg/mL as acid); argument: Cc1c(-c2ccccc2)cc(F)c(Nc2ncccc2C(=O)O)c1F [Ex. 5] 0.490

Return reported Water Solubility @ 25° C. (mg/mL as acid); argument: Cc1c(-c2ccccc2)cc(F)c(Nc2ncccc2C(=O)O)c1F [C3, reference compound] 0.002

Return reported Water Solubility @ 25° C. (mg/mL as acid); argument: COc1cccc(-c2cc(F)c(Nc3ncccc3C(=O)O)c(F)c2)c1 [C1, reference compound] 0.004

Return reported Water Solubility @ 25° C. (mg/mL as acid); argument: COc1cccc(-c2cc(F)c(Nc3ncccc3C(=O)O)c(F)c2)c1 [Ex. 1] 2.810

Return reported Water Solubility @ 25° C. (mg/mL as acid); argument: Cc1c(-c2ccccc2)cc(F)c(Nc2ncccc2C(=O)O)c1F [Ex. 4] 0.210

###

experiment: Dynamic Vapour Sorption (DVS) profiles; format: physicochemical; details: 25° C., sorption 0 to 95% RH and desorption
reported.metric: Hygroscopicity according to the DVS pattern

molecule: Cc1c(-c2ccccc2)cc(F)c(Nc2ncccc2C(=O)O)c1F [Ex. 4]
reported: not hygroscopic

molecule: COc1cccc(-c2cc(F)c(Nc3ncccc3C(=O)O)c(F)c2)c1 [Ex. 2]
reported: not hygroscopic

molecule: COc1cccc(-c2cc(F)c(Nc3ncccc3C(=O)O)c(F)c2)c1 [Ex. 1]
reported: not hygroscopic
